# Tested on: HS 578T breast
# protocol-text: NCI-60 one-dose screen, 48 h (100 = growth as untreated, 0 = no growth, -100 = all killed)
# assay-setup: 10 µM unless noted
# Description: Growth inhibition of the HS 578T human tumor cell line is measured as a screen for anti-cancer activity. Cells are grown in 96 well plates and exposed to the test compound for 48 hours. Compounds are tested at a single concentration, which is 10^-5 M for most compounds. The reported endpoint is percent growth (GI% or GIPRCNT), where numbers from 0 - 100% represent growth inhibition, and numbers from -100% - 0 represent cell death. For example, a value of 40 represents 60% growth inhibition. […]
The panel holds about 83,000 compounds, 20% with a hit somewhere; the sample as a whole holds those more often.
observable: growth (%)

| compound | measured-result |
| --- | --- |
| CN=c1ccc2nc3ccc(N)cc3sc-2c1 | 59 |
| COc1cc(CNC(=O)Cc2ccccc2)ccc1OCc1cn(-c2ccc(F)cc2)nn1 | 99.1 |
| O=C(NCc1ccccc1)C1CN(c2ccc(Cl)cc2)N(c2ccc(Cl)cc2)C1=O (stereo not given) | 74.7 |
| CC(=O)c1ccc2oc(=O)n(Cc3ccc(C#N)cc3)c(=O)c2c1 | 103 |
| COc1ccc(/C=C2\NC(=O)NC2=O)cc1O | 109 |
| COc1ccc(-c2nnc(COc3ccc(C(=O)/C=C/c4ccco4)cc3)o2)cc1 | 92.6 |
| CCOC(=O)c1c2c(n3cccc(Cl)c13)C(=O)c1ncccc1C2=O | 61.3 |
| CCn1c(Cc2ccccc2Nc2c(Cl)cccc2Cl)nnc1SCC(=O)NN1C(=O)/C(=C/c2cccc(OC)c2OC)SC1=S | 94.7 |
| Cc1ccc(F)cc1NC(=O)c1cc(Cl)ccc1Nc1ccccc1 | 90.4 |
| COC(=O)C1=C(C)NC(C)=C(C(=O)OC)C(N2C(=O)CCC2=O)C1 (stereo not given) | 107 |

###

# Tested on: TK-10 renal
# protocol-text: NCI-60 one-dose screen, 48 h (100 = growth as untreated, 0 = no growth, -100 = all killed)
# assay-setup: 10 µM unless noted
# Description: Growth inhibition of the TK-10 human tumor cell line is measured as a screen for anti-cancer activity. Cells are grown in 96 well plates and exposed to the test compound for 48 hours. Compounds are tested at a single concentration, which is 10^-5 M for most compounds. The reported endpoint is percent growth (GI% or GIPRCNT), where numbers from 0 - 100% represent growth inhibition, and numbers from -100% - 0 represent cell death. For example, a value of 40 represents 60% growth inhibition. […]
Compounds without any hit were thinned out: in the full panel of roughly 83,000, 20% have a hit.

| item-smiles | study-target | growth, % |
| --- | --- | --- |
| O=C(c1ccccc1)N(CCc1ccc(Cl)cc1)C(=S)N(C(=O)c1ccccc1)c1ccccc1 | TK-10 renal | 97.4 |
| COC(=O)/C(CCC=C(C)C)=C1\[C@@H](OC(C)=O)C[C@@]2(C)[C@H]1CC(=O)N[C@H]1[C@@]3(C)CCNC(=O)[C@@H](C)[C@@H]3CC[C@@]12C | TK-10 renal | 99.5 |
| S=C1CCCC(=S)N1 | TK-10 renal | 114 |
| COc1cc(CNC(=O)Cc2ccccc2)ccc1OCc1cn(-c2ccc(F)cc2)nn1 | TK-10 renal | 112 |
| COc1ccc(-c2cn3c(C(=O)Nc4ccccc4Cl)c(-c4ccccc4)c4c3n2CCCC4)cc1 | TK-10 renal | 72.2 |
